# target entity: Adenosine A2A receptor (Homo sapiens, UniProt P29274)
# Sequence (P29274 whole entry): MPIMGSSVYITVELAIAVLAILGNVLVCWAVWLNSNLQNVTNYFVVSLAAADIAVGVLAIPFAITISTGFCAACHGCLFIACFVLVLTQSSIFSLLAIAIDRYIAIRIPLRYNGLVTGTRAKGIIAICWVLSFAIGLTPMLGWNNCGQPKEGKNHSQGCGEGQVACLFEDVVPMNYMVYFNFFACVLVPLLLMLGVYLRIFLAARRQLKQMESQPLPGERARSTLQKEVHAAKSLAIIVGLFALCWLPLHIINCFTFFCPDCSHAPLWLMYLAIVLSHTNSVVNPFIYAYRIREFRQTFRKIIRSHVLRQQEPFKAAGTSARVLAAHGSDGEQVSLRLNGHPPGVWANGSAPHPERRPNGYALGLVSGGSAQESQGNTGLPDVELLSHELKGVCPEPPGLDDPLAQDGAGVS
# assay: cAMP assay in 293A cells stably expressing the adenosine A2A receptor (CGS21680 stimulation, HTRF)
# Assay type: cell-based
# Set-up: expressed in transfected cells; host or cells: 293A cells (Invitrogen, Cat# R705-07) infected with A2A-expressing lentivirus (custom packaged by Biosettia), puromycin selected
# applied conditions: 293A cells stably expressing A2A receptor; 0.1% BSA; 1 uM CGS21680 stimulation; replicate values separated by /; read-out: cAMP (nM) 0.1% BSA, 1 uM CGS
reported metric: IC50 (nM)
One number for each entry, in nM.

Consider the following illustrative entries.
{"record smiles": "Cc1cc(-c2c(OCc3cc(C(C)(C)O)cc(C(C)(C)O)n3)nc(N)nc2-c2ccc(F)cc2)cc(C(F)F)n1", "unit spec": "nM", "IC50": 3420}
{"record smiles": "Cc1cc(-c2c(OCc3cc(C#N)cc(C(C)(C)O)n3)nc(N)nc2-c2ccc(F)cc2)cc(C(F)F)n1", "unit spec": "nM", "IC50": 506}
{"record smiles": "Cc1cc(-c2c(OCc3nc(C(C)(C)O)ccc3C(C)(C)O)nc(N)nc2-c2ccc(F)cc2)cc(C(F)F)n1", "unit spec": "nM", "IC50": 3180}
{"record smiles": "Cc1cc(-c2c(OCc3cccc(NS(C)(=O)=O)n3)nc(N)nc2-c2ccc(F)cc2)cc(C(F)F)n1", "unit spec": "nM", "IC50": 3190}
{"record smiles": "Cc1cc(-c2c(OCc3nc(NCC(=O)O)cc4ccccc34)nc(N)nc2-c2ccc(F)cc2)cc(C(F)F)n1", "unit spec": "nM", "IC50": 719}

Shift focus to the following entry.
Please provide the recorded IC50 for Cc1cc(-c2c(OCc3cccc(CNCC(=O)O)n3)nc(N)nc2-c2ccc(F)cc2)cc(C(F)F)n1 , tested on Adenosine A2A receptor (Homo sapiens, UniProt P29274).
2050
